assay: qHTS of pediatric cancer cell lines to identify multiple opportunities for drug repurposing: Primary screen for SK-N-SH cells (AID 1347098); settings: SK-N-SH viability, CellTiter-Glo luminescence, 48 h; series mostly up to 57 µM; also: nearly all actives have a fitted effect of over 65% in size
Records with an inconclusive call do not appear. Activity calls are given as the source filed them. Calls follow the shape of the dose curve; as a rule, active = well fitted cell-killing curve with a large enough effect; inconclusive = small, poorly fitted or top-dose-only effect; inactive = no such curve, though single readings can be large or run the other way.
Possible outcomes: 1.0 = active, 0.0 = inactive

Molecule: CCN(CC)CCSC(=O)C(c1ccccc1)c1ccccc1
Group: 0.0
--
Molecule: CN1CCOC(c2ccccc2)c2ccccc2C1 (configuration not stated)
Group: 0.0
--
Molecule: CCCCOc1cc(C(=O)OCCN(CC)CC)ccc1N
Group: 0.0
--
Molecule: Cc1cc(CC(=O)O)n(C)c1C(=O)c1ccc(Cl)cc1
Group: 0.0
--
Molecule: CCCc1c(OCCCCc2nn[nH]n2)ccc(C(C)=O)c1O
Group: 0.0
--
Molecule: O=c1[nH]cnc2c1ncn2[C@@H]1O[C@H](CO)[C@@H](O)[C@H]1O
Group: 0.0
--
Molecule: OCCN1CCN(CCCN2c3ccccc3Sc3ccc(Cl)cc32)CC1
Group: 1.0
--
Molecule: NC(=O)c1ncn([C@@H]2O[C@H](CO)[C@@H](O)[C@H]2O)n1
Group: 0.0
--
Molecule: CCOC(CN1CCN(CC(C)C(=O)c2ccccc2)CC1)c1ccccc1 (configuration not stated)
Group: 0.0
--
Molecule: CCCCN1CCCC[C@H]1C(=O)Nc1c(C)cccc1C
Group: 0.0
--
Molecule: CC(=O)Oc1ccc(C2(c3ccc(OC(C)=O)cc3)C(=O)Nc3ccccc32)cc1
Group: 0.0
--
Molecule: c1ccc2c(CC3=NCCN3)cccc2c1
Group: 0.0
--
Molecule: CN1CCN(C2Cc3ccccc3Sc3ccc(Cl)cc32)CC1 (configuration not stated)
Group: 1.0
--
Molecule: O=C(O)CC(O)C(=O)O (configuration not stated)
Group: 0.0
--
Molecule: CC1=C(C/C=C(\C)CCC[C@H](C)CCC[C@H](C)CCCC(C)C)C(=O)c2ccccc2C1=O
Group: 0.0
--
Molecule: C[C@H](N)[C@H](O)c1cccc(O)c1
Group: 0.0
--
Molecule: CC1=C(/C=C/C(C)=C/C=C/C(C)=C/C(=O)O)C(C)(C)CCC1
Group: 0.0

---

test: Drug repurposing screens with cells derived from glioblastoma tumor samples (AID 1345199); details: GBM patient neurospheres viability, ATP luminescence, 48 h; at 46.1 µM (top of the series); tumour line C; also: % is scaled to controls: 0 for no effect and ±100 for the full control effect; nearly all actives have a fitted effect of over 40% in size
Records with an inconclusive call do not appear.

Molecule: N[C@H](C(=O)O)c1ccc(O)cc1
activity, negative = cell killing [%]: -10.2
--
Molecule: O=C(O)c1ccccc1-c1ccc(C(F)(F)F)cc1
activity, negative = cell killing [%]: 1.99
--
Molecule: CCCCC(CC)COC(=O)c1ccccc1O (stereo not given)
activity, negative = cell killing [%]: 2.02
--
Molecule: N[C@@H](CSCCCO)C(=O)O
activity, negative = cell killing [%]: -8.48
--
Molecule: Cc1ccc2nc(N)[nH]c(=O)c2c1Sc1ccncc1
activity, negative = cell killing [%]: -42.8

---

# max response values compiled below
test: qHTS Assay for Identifying Gametocytocidal Compounds (AID 743244);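 also: % is scaled to controls: 0 for no effect and ±100 for the full control effect; actives lower the fluorescent signal which means gametocytes are killed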; conditions: P. falciparum 3D7 stage III-V gametocytes, alamarBlue, 72 h; hits give low values
Inconclusive results are not listed.

Compound: O=S(=O)(O)c1cc(I)c(O)c2ncccc12
Unit Spec: %
max response: 5.64

Compound: N[C@H](C(=O)O)c1ccc(O)cc1
Unit Spec: %
max response: -1.91

Compound: CCCCN(CCCC)CCCOC(=O)c1ccc(N)cc1
Unit Spec: %
max response: 0.616

Compound: CN1CCC[C@@H]1Cc1c[nH]c2ccc(CCS(=O)(=O)c3ccccc3)cc12
Unit Spec: %
max response: -0.49

Compound: CC(=O)NC(Cc1ccccc1)C(=O)O (stereo not drawn)
Unit Spec: %
max response: -1.78

Compound: O=c1cc[nH]c(=S)[nH]1
Unit Spec: %
max response: 12.7

Compound: CC(O)CN(CCN(CC(C)O)CC(C)O)CC(C)O (stereo not drawn)
Unit Spec: %
max response: 3.97

Compound: COc1cc2[nH]c(=O)[nH]c(=O)c2cc1OC
Unit Spec: %
max response: 5.15

Compound: C[C@H](NC(CCc1ccccc1)C(=O)O)C(=O)N1CCC[C@H]1C(=O)O (stereo partly drawn)
Unit Spec: %
max response: 7.34

Compound: CCCCC(CC)COC(=O)c1ccccc1O (stereo not drawn)
Unit Spec: %
max response: 10.2

Compound: C[C@@H]1CN(c2c(F)c(F)c3c(=O)c(C(=O)O)cn(C4CC4)c3c2F)C[C@H](C)N1
Unit Spec: %
max response: 12.6

Compound: COc1ccc2[nH]c(S(=O)Cc3ncc(C)c(OC)c3C)nc2n1 (stereo not drawn)
Unit Spec: %
max response: -2.18

Compound: CC(C)(C)NCC(O)COc1ccc(NC(=O)NC2CCCCC2)cc1 (stereo not drawn)
Unit Spec: %
max response: 11.9

Compound: Cc1ccc(C(C)C)cc2c(C)ccc1-2
Unit Spec: %
max response: 3.45

Compound: O=C(O)[C@@H]1CSCN1
Unit Spec: %
max response: -11.5

Compound: NCCNCCNCCNCCN
Unit Spec: %
max response: -2.7

Compound: Cc1cc(C(C#N)c2ccc(Cl)cc2)c(Cl)cc1NC(=O)c1cc(I)cc(I)c1O (stereo not drawn)
Unit Spec: %
max response: 0.496

Compound: C[C@H]1O[C@@H](n2cc(F)c(=O)[nH]c2=O)[C@H](O)[C@@H]1O
Unit Spec: %
max response: 0.485

---

test: qHTS profiling for inhibitors of Plasmodium falciparum proliferation (AID 504749);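 also: 0% = DMSO vehicle and full inhibition = artemisinin control; nearly all actives have a fitted effect of over 60% in size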; details: P. falciparum in erythrocytes, SYBR Green DNA, 72 h; at 28.7 µM (top of the series); parasite line B
Results filed as inconclusive are left out.
# activity, negative = inhibition values compiled below

Compound: CCCCc1ncc(/C=C(\Cc2cccs2)C(=O)O)n1Cc1ccc(C(=O)O)cc1
Unit Spec: %
activity, negative = inhibition: 4.94
//
Compound: CC1=C(/C=C/C(C)=C/C=C/C(C)=C/C(=O)O)C(C)(C)CCC1
Unit Spec: %
activity, negative = inhibition: -26.7
//
Compound: C[C@H]1O[C@@H](n2cc(F)c(=O)[nH]c2=O)[C@H](O)[C@@H]1O
Unit Spec: %
activity, negative = inhibition: 4.84
//
Compound: Cc1cc(C(C#N)c2ccc(Cl)cc2)c(Cl)cc1NC(=O)c1cc(I)cc(I)c1O (stereo not drawn)
Unit Spec: %
activity, negative = inhibition: 7.42
//
Compound: CCCCC(CC)COC(=O)c1ccccc1O (stereo not drawn)
Unit Spec: %
activity, negative = inhibition: -0.719
//
Compound: CCOC(=O)[C@H](CCc1ccccc1)N[C@@H](C)C(=O)N1C(=O)N(C)C[C@H]1C(=O)O
Unit Spec: %
activity, negative = inhibition: 16.1
//
Compound: CNCCC(Oc1ccc(C(F)(F)F)cc1)c1ccccc1 (stereo not drawn)
Unit Spec: %
activity, negative = inhibition: -9.25
//
Compound: Nc1ccc(S(=O)(=O)Nc2ccccc2)cc1
Unit Spec: %
activity, negative = inhibition: 11.6
//
Compound: OCC(O)CN1CCN(c2ccccc2)CC1 (stereo not drawn)
Unit Spec: %
activity, negative = inhibition: 10.4
//
Compound: CC1(C)OC(=O)NC1=O
Unit Spec: %
activity, negative = inhibition: 21.8
//
Compound: O=C(CCCN1CCN(c2ccccn2)CC1)c1ccc(F)cc1
Unit Spec: %
activity, negative = inhibition: 15.4
//
Compound: O=C(O)c1ccccn1
Unit Spec: %
activity, negative = inhibition: -26.4
//
Compound: CCCCN1CCCC[C@H]1C(=O)Nc1c(C)cccc1C
Unit Spec: %
activity, negative = inhibition: 17.3
//
Compound: C[C@](N)(Cc1ccc(O)cc1)C(=O)O
Unit Spec: %
activity, negative = inhibition: 11.9
//
Compound: O=C1OC(OC(=O)c2cccnc2Nc2cccc(C(F)(F)F)c2)c2ccccc21 (stereo not drawn)
Unit Spec: %
activity, negative = inhibition: 2.45
//
Compound: Cn1c(=O)c2c(ncn2CC2OCCO2)n(C)c1=O
Unit Spec: %
activity, negative = inhibition: -9.38
//
Compound: [O-][n+]1cccc(CO)c1
Unit Spec: %
activity, negative = inhibition: 11.6
//
Compound: CN1CCCCC1CCN1c2ccccc2Sc2ccc(S(C)=O)cc21 (stereo not drawn)
Unit Spec: %
activity, negative = inhibition: 5.63
//
Compound: O=c1cc[nH]c(=O)[nH]1
Unit Spec: %
activity, negative = inhibition: 2.41
//
Compound: CCC(=O)c1ccc(O)cc1
Unit Spec: %
activity, negative = inhibition: 2.42
//
Compound: OCc1cc(C(O)CNCCCCCCOCCCCc2ccccc2)ccc1O (stereo not drawn)
Unit Spec: %
activity, negative = inhibition: -10.7
//
Compound: O=C(Oc1ccccc1C(=O)O)c1ccccc1O
Unit Spec: %
activity, negative = inhibition: 10.5
//
Compound: CCCCCCCCCCCCOS(=O)(=O)O
Unit Spec: %
activity, negative = inhibition: -1.46
